B1: ZNF207 (parent)
chain: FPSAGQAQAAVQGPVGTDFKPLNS

Variants of: B1
Assay Notes: protein stability index of a GFP-peptide fusion (GPS, HEK-293T) (PSI 1-6); higher = more stable;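 also: lentivirally expressed fusions sorted by FACS into six bins by GFP to DsRed ratio, PSI derived from sequencing read proportions per bin multiplied by bin number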
Setup Conditions: c terminus: a fixed tail appended
Reported protein stability index values are given for each entry in this list.
Simply state the number, no unit and no words.

Request: // query protein stability index value for entry Q12H
Result: 3.18

Request: Param item: S24W
Result: 1.89

***
Request: // query protein stability index value for entry G13Y
Result: 3.12

Request: Param item: P21C
Result: 3.29

Request: Param item: A4Y
Result: 3.51

Request: Param item: T17W
Result: 2.25

Request: Param item: A7T
Result: 3.49

Request: Param item: P21E
Result: 3.55

Request: Param item: Q6M
Result: 2.8

Request: Param item: N23M
Result: 3.17

Request: Param item: P2C
Result: 2.7

Request: Param item: Q8D
Result: 3.87

Request: Param item: S3E
Result: 3.93

Request: Param item: F19R
Result: 4.11

Request: Param item: G5C
Result: 2.75

Request: Param item: L22E
Result: 3.81

Request: Param item: Q8I
Result: 2.76

Request: Param item: L22S
Result: 3.95

Request: Param item: A7K
Result: 3.49

Request: Param item: N23I
Result: 3.15

Request: Param item: A7R
Result: 3.26

Request: Param item: A10F
Result: 2.22

The measured values listed here are drawn from the supplement of paper PMC10567573.
